target.desc: furin, P09958;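 further: purified furin at 1:10 enzyme:substrate in 50 mM HEPES pH 7.5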
Sequence (P09958 whole entry): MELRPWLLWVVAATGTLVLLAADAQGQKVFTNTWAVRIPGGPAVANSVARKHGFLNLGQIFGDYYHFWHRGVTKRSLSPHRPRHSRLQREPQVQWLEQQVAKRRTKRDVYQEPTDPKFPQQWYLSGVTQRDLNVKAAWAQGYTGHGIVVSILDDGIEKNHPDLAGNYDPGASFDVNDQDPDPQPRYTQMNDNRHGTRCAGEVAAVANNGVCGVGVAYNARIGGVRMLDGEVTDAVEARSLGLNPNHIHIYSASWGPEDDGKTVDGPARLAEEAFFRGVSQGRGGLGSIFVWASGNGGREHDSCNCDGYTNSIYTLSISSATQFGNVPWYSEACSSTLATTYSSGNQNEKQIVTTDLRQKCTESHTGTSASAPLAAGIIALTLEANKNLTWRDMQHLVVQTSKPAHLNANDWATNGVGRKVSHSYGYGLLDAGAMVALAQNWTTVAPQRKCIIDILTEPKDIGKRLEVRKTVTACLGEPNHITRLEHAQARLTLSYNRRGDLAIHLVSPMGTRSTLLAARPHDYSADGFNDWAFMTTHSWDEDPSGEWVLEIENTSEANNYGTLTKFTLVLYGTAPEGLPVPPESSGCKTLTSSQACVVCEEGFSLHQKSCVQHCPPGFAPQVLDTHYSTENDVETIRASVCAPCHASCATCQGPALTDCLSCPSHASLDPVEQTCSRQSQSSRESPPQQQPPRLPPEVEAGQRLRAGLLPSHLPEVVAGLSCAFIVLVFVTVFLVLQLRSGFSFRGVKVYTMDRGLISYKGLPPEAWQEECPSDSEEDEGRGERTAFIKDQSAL
measurement.notes: furin cleavage Z-score vs untreated control; higher = more cleavage, active = 3.5 or more, inactive = 1 or less, 8 variable residues between constant flanks
run.parameters: 30 min
This is one part of the list. The hit rate among all sequences tested is not known here.
Choose the fitting class; nothing outside active, inactive is accepted.

A selection of reference data follows.
sequence.text	classification
CARRSRSPRTAGNASASA [FS-3069]	active
CARAARGTIGAGNASASA [FS-2879]	inactive
CAVVCLSMSYAGNASASA [HC84]	inactive
CARCPRQVSTAGNASASA [FS-3216]	active
CAKERREKRAAGNASASA [FS-601]	active
CAKLKLTPIAAGNASASA [HC1637]	inactive
CARAARSRGAAGNASASA [FS-2324]	inactive
CASRSRSPRPAGNASASA [FS-1283]	inactive

Write down the call the test reported for this sequence. Item: CADFEVVTSTAGNASASA [HC2287]
inactive

Called result for CARAARHVVAAGNASASA [FS-1988]
active

// return assay outcome for CARSRRGIFIAGNASASA [FS-2312]
active

Outcome? CARLCRRSRAAGNASASA [FS-1561]
active
